Listing of entries alongside the reported kon.
- ASSAYED TARGET: T1, hPD-1 Avi-Tag Biotin (AcroBiosystems PD1-H82E4) (human, UniProt Q15116 25-167, biotin on Avi-Tag)
- T1 construct: bought; also called human PD-1
- T1 sequence (Q15116 25-167 limits assumed): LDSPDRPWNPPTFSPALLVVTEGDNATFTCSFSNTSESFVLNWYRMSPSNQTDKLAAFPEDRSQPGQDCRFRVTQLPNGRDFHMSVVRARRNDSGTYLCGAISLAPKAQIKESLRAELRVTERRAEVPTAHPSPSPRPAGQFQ
- ASSAY INFO: SPR, Ab captured, PD-1 analyte
Please give a number only; it is taken to be in M⁻¹ s⁻¹.

# BINDER, DISPLAY UNIT, VALUE REPORTED
data = [
    ("z5-XVT458 (antibody, human IgG1, kappa, V domains shown, hIgG1; numbering as for z1; also called GH + V067A + T073K) VH: QVQLVQSGAEVKKPGASVKVSCKASGYTFTNFYIHWVRQAPGQGLEWMGSIYPNYGDTAYNQKFKDRATMTTDKSTSTAYMELRSLRSDDTAVYYCARGYSYAMDYWGQGTTVTVSS VL: DIQMTQSPSSVSASVGDRVTITCSASQGISGDLNWYQQKPGKAPKLLIYHTSSLHSGVPSRFSGSGSGTDFTLTISSLQPEDFATYYCQYYSKDLLTFGGGTKLEIKR", "M⁻¹ s⁻¹", 91400),
]

From here, focus on the item given below.
input: Report measured kon; entry is z1-XVT458 (antibody, human IgG1, kappa, V domains shown, hIgG1; also called GH + V067A) VH: QVQLVQSGAEVKKPGASVKVSCKASGYTFTNFYIHWVRQAPGQGLEWMGSIYPNYGDTAYNQKFKDRATMTTDTSTSTAYMELRSLRSDDTAVYYCARGYSYAMDYWGQGTTVTVSS VL: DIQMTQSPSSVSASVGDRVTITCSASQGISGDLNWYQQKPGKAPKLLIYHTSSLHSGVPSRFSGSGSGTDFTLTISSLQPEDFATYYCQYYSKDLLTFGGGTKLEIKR
output: 92300

Values compiled from patent US20260207767A1.
